Kindly supply the reported EC50 values for the records listed here.
System: S. mansoni schistosomula
PROTOCOL_DESCRIPTION: S. mansoni schistosomula high-throughput phenotype and motility screen (Roboworm), 72 h
Format: cell-based, Schistosoma mansoni
COND: Schistosoma mansoni, Table 5, Series C; read-out: Anti-schistosomal activity EC50 Schistosomula (μM) Phenotype

Study these solved cases before continuing.
{"MOLECULE": "O=C(Nc1ccc2nc(Nc3ccc(Cl)c(Cl)c3)c(Nc3ccc(Cl)c(Cl)c3)nc2c1)C1CCCCC1 [Compound 22e]", "EC50": "> 50 µM"}
{"MOLECULE": "O=C(Nc1ccc2nc(Nc3ccc(Cl)c(Cl)c3)c(Nc3ccc(Cl)c(Cl)c3)nc2c1)c1cccc(C(F)(F)F)c1 [Compound 22g]", "EC50": "> 50 µM"}

Short answer please: EC50, S. mansoni schistosomula, entry Clc1ccc(Nc2nc3ccc(N4CCCC4)cc3nc2Nc2ccc(Cl)c(Cl)c2)cc1Cl [Compound 22b] > 10 µM
